Test: Human HepG2 cell viability assay in 384 well format
Assay type: toxicity, cell-based
Set-up: dose 125 nL, time 70.5 hour; concentration not given beside the values
Details: HepG2 cells, read-out: Inhibition

compound: Cc1nc(C)n(CC2CCCN2CC(=O)NCCC2=CCCCC2)n1 (stereo unspecified)
cytotoxicity at 70.5 h [%]: -9.96
--
compound: CC(C)CNC(=O)c1cn(-c2ccccn2)c(=O)c2ccccc12
cytotoxicity at 70.5 h [%]: -7.97
--
compound: CC(C)c1ccc(OCCNC(=O)N2CCS(=O)(=O)CC2)cc1
cytotoxicity at 70.5 h [%]: -2.35
--
compound: CC(C)=CCNC1CCCN(c2ccc(C)nn2)C1 (stereo unspecified)
cytotoxicity at 70.5 h [%]: -1.28
--
compound: CCN(c1ccc(C(=O)N(Cc2cnn(C)c2)C(C)C)cn1)C(C)C
cytotoxicity at 70.5 h [%]: -24.7
--
compound: Cc1nc(N(C)C)nc(C)c1NS(=O)(=O)c1ccccc1Cl
cytotoxicity at 70.5 h [%]: -8.77

meta.source: ChEMBL document CHEMBL3507680
